Test: in vitro
Conditions: human, Km 2
observed-property: Km (µM)
Numbers only, in µM.

Give recorded Km. CNc1ccc([C@H]2C[C@]3(C)[C@@H](CC[C@]3(O)CCCO)[C@@H]3CCC4=CC(=O)CCC4=C32)cc1 [Metabolite M1]
175

* * *

Assay: in vitro
Settings: human, Km 1
observed-property: Km (µM)
One number for each entry, in µM.

Entry CNc1ccc([C@H]2C[C@]3(C)[C@@H](CC[C@]3(O)CCCO)[C@@H]3CCC4=CC(=O)CCC4=C32)cc1 [Metabolite M1] needs its Km filled in; supply it.
0.75

* * *

Assay: in vitro
Conditions: male, human, Km 1
observed-property: Km

Provide only the value of recorded Km for CNc1ccc([C@H]2C[C@]3(C)[C@@H](CC[C@]3(O)CCCO)[C@@H]3CCC4=CC(=O)CCC4=C32)cc1 [Metabolite M1]
0.96 µM

The measurements presented in this section are drawn from patent US20170266204A1.
